This collection of values is drawn from patent US20150147274A1.

TESTED_TARGET: T1, MET928 (cMET protein derived from construct 25-928) (human, UniProt P08581 25-928)
T1 construct: MET ectodomain, residues 1-24 are the leader; produced in Lec 8 cells; background text says the ectodomain is furin-cleaved into alpha (25-307) and beta chains; biotinylated form used in selections; also called MET928 extracellular domain; Met extracellular domain
T1 sequence (P08581 25-928): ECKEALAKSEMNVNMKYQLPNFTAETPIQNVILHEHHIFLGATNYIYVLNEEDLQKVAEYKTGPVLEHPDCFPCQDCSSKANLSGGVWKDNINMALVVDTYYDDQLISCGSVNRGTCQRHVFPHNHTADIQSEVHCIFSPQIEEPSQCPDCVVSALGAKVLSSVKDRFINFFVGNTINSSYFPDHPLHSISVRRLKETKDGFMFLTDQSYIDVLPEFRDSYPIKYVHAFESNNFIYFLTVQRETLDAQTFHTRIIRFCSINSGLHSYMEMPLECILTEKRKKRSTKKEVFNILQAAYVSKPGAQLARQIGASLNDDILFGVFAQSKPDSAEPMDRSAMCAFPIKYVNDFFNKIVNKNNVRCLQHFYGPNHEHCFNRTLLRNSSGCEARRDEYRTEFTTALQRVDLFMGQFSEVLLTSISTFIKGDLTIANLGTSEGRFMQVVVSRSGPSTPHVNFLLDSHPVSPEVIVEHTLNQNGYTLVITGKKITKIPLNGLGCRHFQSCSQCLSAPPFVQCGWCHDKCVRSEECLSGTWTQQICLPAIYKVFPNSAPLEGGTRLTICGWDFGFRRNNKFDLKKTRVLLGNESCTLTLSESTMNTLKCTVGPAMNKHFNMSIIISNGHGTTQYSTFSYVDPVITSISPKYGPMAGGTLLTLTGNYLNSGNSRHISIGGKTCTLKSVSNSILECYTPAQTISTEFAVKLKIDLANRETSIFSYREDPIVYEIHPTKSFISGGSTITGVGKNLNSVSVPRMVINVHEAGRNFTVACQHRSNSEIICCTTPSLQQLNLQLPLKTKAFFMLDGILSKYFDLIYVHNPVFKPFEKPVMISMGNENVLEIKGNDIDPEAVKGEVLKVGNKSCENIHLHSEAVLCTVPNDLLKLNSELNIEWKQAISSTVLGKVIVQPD
TEST_DESCRIPTION: Biacore SPR, MET-928 on chip, scFv format
Experimental: The binding characteristics of 7A2 and its derivatives were measured using a GE Healthcare Biacore biosensor.
VALUE_TYPE: koff (s⁻¹)
Numbers only, in s⁻¹.

Query string: Please look up its koff: 110_A01 scFv (6xHis/tri-Flag tags) (scFv, 7A2 derivative, only VH CDR3 changed; also called 110_A1; not shown: 6xHis/tri-FLAG tags of pSANG10-3F) scFv: QMQLVQSGAEVKKPGAPVKVSCKVSGYTFTDYYMHWVQQAPGKGLEWMGLVDPEDGETIYAEKFQGRVTITADTSTDTAYMELSSLRSEDTAVYYCATDATTPYWFPYLWGQGTLVTVSSLEGGGGSGGGGSGGGASDIQMTQSPSSLSASVGDRVTITCQASQDISNYLNWYQQKPGRAPKVLIYDASNLETGVPSRFSGSGSGTEFTLTISNLRPDDFATYYCQQGDSFPLTFGGGTKVEIK
Result string: 0.00163
